Cited source for all entries: patent US9980943B2

# System: β-galactosidase in CMV-LacZ C2C12 myoblasts
# Protocol Details: CMV-LacZ secondary screen in C2C12 myoblasts (β-Gal stabilizing assay)
# Assay type: cell-based, mouse
# Condition Details: 20 uM; CMV-LacZ C2C12 myoblasts
Quantity Kind: CMV-LACZ in Myoblasts (β-galactosidase activity relative to DMSO)
Could you keep your reply to the number by itself?

Request - read-out CMV-LACZ in Myoblasts (β-galactosidase activity relative to DMSO) | tested on β-galactosidase in CMV-LacZ C2C12 myoblasts | compound COc1ccc(C(=O)Nc2ccc(Cl)cn2)cc1Cl
0.3140

Request - read-out CMV-LACZ in Myoblasts (β-galactosidase activity relative to DMSO) | tested on β-galactosidase in CMV-LacZ C2C12 myoblasts | compound O=S(=O)(NC(=NC1CCCCC1)c1ccccc1F)c1ccccc1
1.0870

Request - read-out CMV-LACZ in Myoblasts (β-galactosidase activity relative to DMSO) | tested on β-galactosidase in CMV-LacZ C2C12 myoblasts | compound O=c1[nH]c(SCc2ccc(Cl)cc2)nc2ccsc12
1.0835

Request - read-out CMV-LACZ in Myoblasts (β-galactosidase activity relative to DMSO) | tested on β-galactosidase in CMV-LacZ C2C12 myoblasts | compound CCOc1ccccc1NC(=O)c1cccc2c1C(=O)N(C1CCCCC1)C2
1.0257

Request - read-out CMV-LACZ in Myoblasts (β-galactosidase activity relative to DMSO) | tested on β-galactosidase in CMV-LacZ C2C12 myoblasts | compound O=C(O)C(Cc1ccc(O)cc1)N1C(=O)c2ccccc2C1=O (stereo not drawn)
0.8663

Request - read-out CMV-LACZ in Myoblasts (β-galactosidase activity relative to DMSO) | tested on β-galactosidase in CMV-LacZ C2C12 myoblasts | compound O=C(Cn1nc(-c2ccc(Cl)cc2)ccc1=O)N1CCC2(CC1)OCCO2
1.0141

Request - read-out CMV-LACZ in Myoblasts (β-galactosidase activity relative to DMSO) | tested on β-galactosidase in CMV-LacZ C2C12 myoblasts | compound C#CC1(O)CCC2C3CCC4=C/C(=N/OCC(=O)NCC(=O)NC(C(=O)O)C(C)C)CC[C@]4(C)C3CC[C@@]21C (stereo partly drawn)
0.7593

Request - read-out CMV-LACZ in Myoblasts (β-galactosidase activity relative to DMSO) | tested on β-galactosidase in CMV-LacZ C2C12 myoblasts | compound COc1cc(NC(=O)OCc2ccccc2)c2ncccc2c1
1.0044

Request - read-out CMV-LACZ in Myoblasts (β-galactosidase activity relative to DMSO) | tested on β-galactosidase in CMV-LacZ C2C12 myoblasts | compound O=c1c2cc(-c3ccccc3)sc2nc2n1N=C(c1ccccc1)CS2
0.9985

Request - read-out CMV-LACZ in Myoblasts (β-galactosidase activity relative to DMSO) | tested on β-galactosidase in CMV-LacZ C2C12 myoblasts | compound Cc1nc(Nc2ccccc2F)c2oc3ccccc3c2n1
1.2639

Request - read-out CMV-LACZ in Myoblasts (β-galactosidase activity relative to DMSO) | tested on β-galactosidase in CMV-LacZ C2C12 myoblasts | compound CC(C)(C)c1csc(NC(=O)c2cccnc2)n1
1.1059

Request - read-out CMV-LACZ in Myoblasts (β-galactosidase activity relative to DMSO) | tested on β-galactosidase in CMV-LacZ C2C12 myoblasts | compound Cc1ccc2c(c1)/C(=C/c1ccco1)C(=O)N2
1.1433

Request - read-out CMV-LACZ in Myoblasts (β-galactosidase activity relative to DMSO) | tested on β-galactosidase in CMV-LacZ C2C12 myoblasts | compound Cn1cc(CN(CCO)Cc2cccs2)c(-c2ccccc2F)n1
0.9374

Request - read-out CMV-LACZ in Myoblasts (β-galactosidase activity relative to DMSO) | tested on β-galactosidase in CMV-LacZ C2C12 myoblasts | compound COc1ccc(CN2CCNC(=O)C2CC(=O)NCCc2c[nH]c3ccccc23)c(OC)c1 (stereo not drawn)
1.0122

Request - read-out CMV-LACZ in Myoblasts (β-galactosidase activity relative to DMSO) | tested on β-galactosidase in CMV-LacZ C2C12 myoblasts | compound COc1ccc(Cl)cc1NC(=O)c1cc(-c2cc(C)ccc2O)n[nH]1
0.9944

Request - read-out CMV-LACZ in Myoblasts (β-galactosidase activity relative to DMSO) | tested on β-galactosidase in CMV-LacZ C2C12 myoblasts | compound O=C(COc1ccc(Cl)cc1)N1CCN(C2CCCC2)CC1.O=C(O)C(=O)O
1.0181

Request - read-out CMV-LACZ in Myoblasts (β-galactosidase activity relative to DMSO) | tested on β-galactosidase in CMV-LacZ C2C12 myoblasts | compound Cc1ccccc1NC(=O)c1ccc2c(O)c(S(=O)(=O)c3ccccc3)c(=O)[nH]c2c1
1.0404

Request - read-out CMV-LACZ in Myoblasts (β-galactosidase activity relative to DMSO) | tested on β-galactosidase in CMV-LacZ C2C12 myoblasts | compound CCc1c(C)sc(NC(=O)c2ccco2)c1C#N
1.0367

Request - read-out CMV-LACZ in Myoblasts (β-galactosidase activity relative to DMSO) | tested on β-galactosidase in CMV-LacZ C2C12 myoblasts | compound CC1Cc2ccccc2N1C(=O)CSc1nnc(N)s1 (stereo not drawn)
0.8144

Request - read-out CMV-LACZ in Myoblasts (β-galactosidase activity relative to DMSO) | tested on β-galactosidase in CMV-LacZ C2C12 myoblasts | compound Cc1ccc(NS(=O)(=O)c2ccc(-c3ccc(=O)[nH]n3)o2)c(C)c1
1.1815

Request - read-out CMV-LACZ in Myoblasts (β-galactosidase activity relative to DMSO) | tested on β-galactosidase in CMV-LacZ C2C12 myoblasts | compound N#Cc1nc(COc2ccccc2)oc1N1CCCC1
0.8796

----------
# Tested on: β-galactosidase in CMV-LacZ C2C12 myotubes
# Protocol Details: CMV-LacZ secondary screen in C2C12 myotubes (β-Gal stabilizing assay)
# Format: cell-based, mouse
# Condition Details: 0.5 uM; C2C12 CMV-LacZ myotubes; fold relative to DMSO
The label 1 (yes) is reserved for CMV-LACZ in Myotubes, signal relative to DMSO strictly under 1; 0 (no) covers values equal to or above it.

Consider the molecule COc1cc([N+](=O)[O-])cc(/C=N/NC(=O)C(O)(c2ccccc2)c2ccccc2)c1O . Is its CMV-LACZ in Myotubes, signal relative to DMSO strictly less than 1?
1 (yes)

Consider the molecule COc1cc(NC(=O)OCc2ccccc2)c2ncccc2c1 . Is its CMV-LACZ in Myotubes, signal relative to DMSO strictly less than 1?
1 (yes)

Consider the molecule CCC(CC)C(=O)Nc1c(C(=O)N2CCN(c3ccccc3)CC2)oc2ccccc12 . Is its CMV-LACZ in Myotubes, signal relative to DMSO strictly less than 1?
0 (no)

Consider the molecule COC(=O)c1cc(S(=O)(=O)NCC2CCN(Cc3ccc(Cl)cc3)CC2)cn1C . Is its CMV-LACZ in Myotubes, signal relative to DMSO strictly less than 1?
0 (no)

Consider the molecule Cc1[nH]c(=O)[nH]c(=O)c1S(=O)(=O)Nc1ccc(F)cc1Cl . Is its CMV-LACZ in Myotubes, signal relative to DMSO strictly less than 1?
1 (yes)

Consider the molecule CCC(C)n1[nH]c(=O)cc1N (stereo not drawn) . Is its CMV-LACZ in Myotubes, signal relative to DMSO strictly less than 1?
0 (no)

----------
Answer each item with its documented Burkin Assay in Myotubes, α7 integrin LacZ reporter signal relative to DMSO.
# System: α7 integrin (LacZ reporter in α7+/LacZ myotubes)
# Protocol Details: Myotube α7 integrin FDG assay (Burkin assay in myotubes, 96-well)
# Type: cell-based, mouse
# Condition Details: myotubes, 20 uM

Report Burkin Assay in Myotubes, α7 integrin LacZ reporter signal relative to DMSO for CCCS(=O)(=O)c1nc(S(=O)(=O)c2ccc(C)cc2)c(N2CCCC2)s1 [MLS000113985-01] please.
0.7655

Report Burkin Assay in Myotubes, α7 integrin LacZ reporter signal relative to DMSO for Cc1cccc(NC(=O)c2ccc(N3C(=O)C4CCCCC4C3=O)cc2)c1C (stereo not drawn) [MLS001147727-01] please.
1.11

Report Burkin Assay in Myotubes, α7 integrin LacZ reporter signal relative to DMSO for O=C1Nc2ccccc2/C1=C/c1ccccc1F [MLS001202389-01] please.
0.6412

Report Burkin Assay in Myotubes, α7 integrin LacZ reporter signal relative to DMSO for CC1(C)Cc2ccccc2-c2nc3n(c(=O)c21)CCS3 [MLS000711491-01] please.
0.671

Report Burkin Assay in Myotubes, α7 integrin LacZ reporter signal relative to DMSO for CC(C)c1ccc(NC(=O)CN2C(=O)c3ccccc3S2(=O)=O)cc1 [MLS001229477-01] please.
0.8376

Report Burkin Assay in Myotubes, α7 integrin LacZ reporter signal relative to DMSO for CCCCNc1nnc(Cc2ccc(Cl)cc2)c(=O)[nH]1 [MLS001215795-01] please.
0.9147

Report Burkin Assay in Myotubes, α7 integrin LacZ reporter signal relative to DMSO for CC(C)c1ccc(OC(=O)c2cccc(S(=O)(=O)N3CCN(C)CC3)c2)cc1 [MLS001130011-01] please.
0.7883

Report Burkin Assay in Myotubes, α7 integrin LacZ reporter signal relative to DMSO for COC(=O)Cn1c(=O)c2c(nc3n2CC(C)CN3Cc2ccccc2)n(C)c1=O (stereo not drawn) [MLS001166758-01] please.
0.9856

Report Burkin Assay in Myotubes, α7 integrin LacZ reporter signal relative to DMSO for CCCn1c(-c2cc(OC)c(OC)c(OC)c2)nc2c1c(=O)[nH]c(=O)n2Cc1ccccc1 [MLS001174740-01] please.
0.7823

Report Burkin Assay in Myotubes, α7 integrin LacZ reporter signal relative to DMSO for CC(=O)Nc1nonc1-c1nc2ccccc2n1CCC(C)C [MLS000085522-01] please.
1.029

Report Burkin Assay in Myotubes, α7 integrin LacZ reporter signal relative to DMSO for Cc1ccc(S(=O)(=O)NC(C)C(=O)NC(C)c2cccs2)cc1 (stereo not drawn) [MLS001221867-01] please.
1.02

Report Burkin Assay in Myotubes, α7 integrin LacZ reporter signal relative to DMSO for COc1ccccc1NS(=O)(=O)c1cc(NC(=O)c2ccc(Cl)nc2)ccc1N1CCCC1 [MLS002248819-01] please.
0.9243
